testSettings: in water, 283.15 K
valueKind: solubility (mole fraction)

The reported value for `Nc1cncc(Cl)n1` in terms of solubility (mole fraction) is 4.42e-05

###

testSettings: in ethylene glycol, 318.15 K
valueKind: solubility (mole fraction)

The reported value for `Nc1cncc(Cl)n1` in terms of solubility (mole fraction) is 0.00325

###

testSettings: in acetonitrile, 293.15 K
valueKind: solubility (mole fraction)

The reported value for `Nc1cncc(Cl)n1` in terms of solubility (mole fraction) is 0.0172

###

testSettings: in ethanol, 293.15 K
valueKind: solubility (mole fraction)
# answer = number (no unit)

The reported value for `Nc1cncc(Cl)n1` in terms of solubility (mole fraction) is 0.00272
